Reference for the values: the supplement of paper PMC6555819

# System: PPARg:RXRa DBDmut IVT, anti-RXR (DBD mutation: RXRa K156A/R161A, NR concentration 270 nM, RXRa partner concentration 90 nM)
# Measurement notes: PBM binding z-score (relative to random genomic background probes); higher = stronger binding; sequences stand for … in GC…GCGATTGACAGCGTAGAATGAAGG
In this section, each of the sequences is paired with its reported PBM binding z-score.

# annotated cases, reported PBM binding z-score shown
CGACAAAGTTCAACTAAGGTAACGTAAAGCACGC
0.248
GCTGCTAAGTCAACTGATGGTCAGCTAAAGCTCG
-0.284
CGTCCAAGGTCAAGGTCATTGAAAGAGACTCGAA
3.44
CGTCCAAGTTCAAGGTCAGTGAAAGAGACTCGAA
0.857

Just so you know, measured PBM binding z-score for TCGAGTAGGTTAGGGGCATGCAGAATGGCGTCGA came out at 1.92
